Tested on: H460 (NRF2 pathway mutant cell line with high AKR1C3 expression)
assay.details: In vitro cell proliferation assay (CellTiter-Glo), H460
Assay type: cell-based
run.conditions: Homo sapiens, NCI-H460, 72 h; H460 cells, 3 days, CellTiter-Glo, top concentration 10 μM; read-out: H460 Qualified absolute AC50
Description: Cellular Proliferation Assay to Assess Compounds Activity in H460 (NRF2 Pathway Mutant Cell Line with High AKR1C3 Expression) and Hara (NRF2 Pathway Wild Type Cell Line with Low AKR1C3 Expression). The cell lines A549 and H460 are NRF2 pathway mutant and specifically contain genetic alterations in KEAP1 (A549: G333C, H460: D236H) (Singh A. et al., 2006 PLoS Medicine 3(10) e420). […]
Item-by-item account of AC50
Entry rule: numbers only, all in nM.

>  <molecule>
CN1c2ccc(F)cc2C(=O)CC12CCN(C(=O)NCc1ccc(F)c(NCCO)c1)CC2 [Example 36]

>  <value.reported>
78

$$$$
>  <molecule>
O=C(NCc1ccc(F)cc1)N1CCC2(CC1)C[C@@H](O)c1cc(F)ccc1N2 (single isomer, unassigned) [Example 152]

>  <value.reported>
21

$$$$
>  <molecule>
O=C1CC2(CCN(C(=O)NCc3ccc(F)c(CO)c3)CC2)Nc2ccc(F)cc21 [Example 83]

>  <value.reported>
361

$$$$

For reference, reported AC50 for CN1c2ccc(F)cc2C(=O)CC12CCN(C(=O)NCc1ccc(F)c(NCC(C)(C)C(=O)N3CCOCC3)c1)CC2 [Example 113] stands at 846

For reference, reported AC50 for NS(=O)(=O)Cc1cc(CNC(=O)N2CCC3(CC2)CC(=O)c2cc(F)ccc2N3)ccc1F [Example 147] stands at 3960

For reference, reported AC50 for O=C1CC2(CCN(C(=O)NCc3cccc(CO)c3)CC2)Nc2c(F)cc(F)cc21 [Example 129] stands at 1520

For reference, reported AC50 for CCN1c2ccc(F)cc2C(=O)CC12CCN(C(=O)NCc1ccc(F)c(N)c1)CC2 [Example 29] stands at 54

For reference, reported AC50 for O=C1CC2(CCN(C(=O)NCc3ccc(F)cc3O)CC2)Nc2ccc(F)cc21 [Example 43] stands at 99

For reference, reported AC50 for CN1c2ccc(F)cc2C(O)CC12CCN(C(=O)NCc1ccc(F)c(NCCO)c1)CC2 (stereo not drawn) [Example 165] stands at 49

====

Test system: H460 (NRF2 pathway mutant cell line with high AKR1C3 expression)
assay.details: In vitro cell proliferation assay (CellTiter-Glo), H460
Assay type: cell-based
run.conditions: Homo sapiens, NCI-H460, 72 h; H460 cells, 3 days, CellTiter-Glo, top concentration 10 μM; read-out: H460 Qualified absolute AC50
Item-by-item account of AC50
Entry rule: numbers only, all in nM.

>  <compound>
O=C(NC1COC1)c1cc(CNC(=O)N2CCC3(CC2)CC(=O)c2cc(F)ccc2N3)ccc1F

>  <study.system>
H460 (NRF2 pathway mutant cell line with high AKR1C3 expression)

>  <AC50 (nM)>
580

$$$$

Tested on H460 (NRF2 pathway mutant cell line with high AKR1C3 expression): Nc1cc(CNC(=O)N2CCC3(CC2)CC(O)c2cc(F)ccc2N3)ccc1F (racemic) . Observed AC50: 33

Tested on H460 (NRF2 pathway mutant cell line with high AKR1C3 expression): COCCNc1cc(F)ccc1CNC(=O)N1CCC2(CC1)CC(O)c1cc(F)ccc1N2C (racemic) . Observed AC50: 3
